Data provenance: ChEMBL document CHEMBL4043245

# System: Plasmodium falciparum
# TEST: Antimalarial activity against asexual blood stage of chloroquine-susceptible Plasmodium falciparum D6 infected in human erythrocytes by [3H]-Hypoxanthine uptake assay
# Assay type: functional, cell-based
Recorded pIC50 by entry
pIC50 here is simply -log10 of the concentration when that concentration is written in mol/L.

# COMPOUND, pIC50
rows = [
    ("COc1cc(NC(C)CCCN)c2ncccc2c1 (configuration not stated)", 5.29),
]

Attention now shifts to the item below.
Query: pIC50; subject: COc1cc(NC(C)CCCNC(=O)CCCc2cc(=O)oc3cc(O)ccc23)c2ncccc2c1 (configuration not stated)
5.35

====

# System: Plasmodium berghei
# TEST: Antiplasmodial activity against liver stage chloroquine-susceptible Plasmodium berghei 1052 C11 infected in HepG2 cells after 44 hrs by TopCount microplate luminescence assay
# Assay type: functional, cell-based
# CONDITION_DESCRIPTION: 1052 C11, HepG2, 44 h
Attribute: pIC50
pIC50 here is simply -log10 of the concentration when that concentration is written in mol/L.

# COMPOUND, EXPERIMENTAL_TARGET, pIC50
rows = [
    ("COc1cc(NC(C)CCCNC(=O)CCCc2cc(=O)oc3cc(O)ccc23)c2ncccc2c1 (configuration not stated)", "Plasmodium berghei", 4.68),
]

# ---- query compound ----
So what's the measured pIC50 for this one? COc1cc(NC(C)CCCN)c2ncccc2c1 (configuration not stated)
4.76
